FYI, the data here is from ChEMBL document CHEMBL1201862.

assayed-target: Nuclear receptor subfamily 5 group A member 2 (Homo sapiens, UniProt O00482);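 also: HEK293T cells transfected with LRH-1 and a StAR promoter luciferase reporter; potency for inhibitors that lower LRH-1 driven reporter light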
Sequence (O00482 whole entry): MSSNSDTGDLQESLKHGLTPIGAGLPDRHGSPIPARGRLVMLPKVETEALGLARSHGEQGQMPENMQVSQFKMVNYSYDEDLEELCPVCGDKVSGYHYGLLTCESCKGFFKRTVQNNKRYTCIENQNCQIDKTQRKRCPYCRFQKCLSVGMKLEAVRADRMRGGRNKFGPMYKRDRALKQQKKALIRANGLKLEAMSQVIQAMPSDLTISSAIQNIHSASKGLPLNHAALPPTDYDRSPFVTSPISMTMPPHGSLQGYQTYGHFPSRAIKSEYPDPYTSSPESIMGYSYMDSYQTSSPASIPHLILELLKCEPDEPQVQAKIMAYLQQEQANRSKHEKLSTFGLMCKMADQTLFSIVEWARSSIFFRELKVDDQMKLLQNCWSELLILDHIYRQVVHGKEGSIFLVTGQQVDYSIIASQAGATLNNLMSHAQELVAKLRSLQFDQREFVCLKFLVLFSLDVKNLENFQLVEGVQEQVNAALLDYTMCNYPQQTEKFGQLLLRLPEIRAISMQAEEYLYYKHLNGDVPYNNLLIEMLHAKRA
Assay type: functional, cell-based
Calls of active or inactive are those of the source.
Outcomes: T = active, F = inactive

[
  {
    "compound": "CCCOc1ccc(NC(=O)CC2C(=O)N(C)C(=S)N2Cc2ccc3c(c2)OCO3)cc1 (stereo not given)",
    "classification": "T"
  },
  {
    "compound": "O=C(COC(=O)CCN1C(=O)C2CC=CCC2C1=O)NCCc1ccccc1 (stereo not given)",
    "classification": "F"
  },
  {
    "compound": "CC(C)Oc1cccc(-c2cc(C(=O)NN3CCOCC3)c3ccccc3n2)c1",
    "classification": "F"
  },
  {
    "compound": "COc1ccc(CCNC(=O)CSc2nn3c(=O)c(C)nnc3s2)cc1OC",
    "classification": "F"
  },
  {
    "compound": "COc1ccc(CCNC(=O)CN2C(=O)NC3(CCCCC3C)C2=O)cc1 (stereo not given)",
    "classification": "T"
  }
]

* * *

assayed-target: UniProt P38532
Sequence (P38532 whole entry): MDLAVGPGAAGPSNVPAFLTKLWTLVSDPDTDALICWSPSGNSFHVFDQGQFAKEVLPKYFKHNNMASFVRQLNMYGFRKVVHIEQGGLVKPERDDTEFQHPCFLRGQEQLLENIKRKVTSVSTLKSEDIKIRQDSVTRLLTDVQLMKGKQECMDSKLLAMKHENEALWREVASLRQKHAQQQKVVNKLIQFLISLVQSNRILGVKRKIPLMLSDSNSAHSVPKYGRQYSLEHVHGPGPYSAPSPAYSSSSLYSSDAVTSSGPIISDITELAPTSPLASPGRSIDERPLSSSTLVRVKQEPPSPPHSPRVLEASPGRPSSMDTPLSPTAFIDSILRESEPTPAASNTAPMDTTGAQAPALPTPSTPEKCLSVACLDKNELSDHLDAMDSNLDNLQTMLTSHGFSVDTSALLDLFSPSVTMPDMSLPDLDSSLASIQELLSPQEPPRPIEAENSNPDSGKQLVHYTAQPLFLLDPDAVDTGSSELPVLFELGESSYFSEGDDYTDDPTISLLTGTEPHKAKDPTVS
protocol-text: inhibition of MG132-induced HSE-luciferase signal, confirmation, cell-based, NIH3T3, luminescence, dose retest (AID 2382);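 also: NIH3T3 fibroblasts with HSF1-driven luciferase reporter stressed by proteasome inhibitor MG132; luminescence from HSF1-driven luciferase expression after 8 hours of MG132 stress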
Format: functional
The source made the active and inactive calls.
This section presents compounds with their documented EC50 values.

[
  {
    "compound": "CC(C)CC(=O)NC(NC(=O)CC(C)C)c1cccc([N+](=O)[O-])c1",
    "EC50": "> 195 µM (not active)"
  },
  {
    "compound": "Fc1ccc(Cc2nnc(-c3cccs3)o2)cc1",
    "EC50": "> 195 µM (not active)"
  },
  {
    "compound": "COC(=O)Nc1sccc1C(=O)Nc1sccc1C(=O)OC",
    "EC50": "> 195 µM (not active)"
  },
  {
    "compound": "CCOC(=O)c1c(C)[nH]c(C2=NN=C(Nc3cccc(Cl)c3)SC2)c1C",
    "EC50": "25.3 µM (active)"
  },
  {
    "compound": "Cc1ccc2c(N)c(C(=O)N(c3ccccc3)c3ccccc3)sc2n1",
    "EC50": "> 195 µM (not active)"
  },
  {
    "compound": "Cc1[nH]n(-c2ccccc2)c(=O)c1N=Nc1ccc2c(c1)OCO2",
    "EC50": "> 195 µM (not active)"
  },
  {
    "compound": "CC(C)(C)OC(=O)C1C(=O)CC(C)(O)C(C(=O)OC(C)(C)C)C1c1cccnc1 (stereo not drawn)",
    "EC50": "> 195 µM (not active)"
  },
  {
    "compound": "CCOc1ccc(NC(=O)CN(C)C(=O)c2ccc(N3CCCC3)c([N+](=O)[O-])c2)cc1OCC",
    "EC50": "> 195 µM (not active)"
  }
]
